Test system: 293/Trp-p8.clone 10
Protocol description: IC50 on 293/Trp-p8.clone 10
Format: cell-based, human
Experimental parameters: Homo sapiens; read-out: IC50 293/Trp-p8.c10
Recorded IC50 by entry

Compound	IC50
CC(C)[C@@H]1CC[C@@H](C)C[C@H]1C(=O)Nc1ccc(O)cc1 [IIa4-3]	1230 nM
CC(C)[C@@H]1CC[C@@H](C)C[C@H]1C(=O)Nc1ccc(C(C)(C)C)cc1 [IIa4-11]	1230 nM
COc1cccc(NC(=O)[C@@H]2C[C@H](C)CC[C@H]2C(C)C)c1 [IIa10-1]	3800 nM
COc1ccc(NC(=O)[C@@H]2C[C@H](C)CC[C@H]2C(C)C)c(C)c1 [IIa12-1]	1140 nM
CC(C)c1ccc(NC(=O)[C@@H]2C[C@H](C)CC[C@H]2C(C)C)cc1 [IIa4-4]	760 nM
O=C1NC(c2cccc([N+](=O)[O-])c2)=CCN1c1ccccc1O [Icilin, reference compound]	79200 nM
COc1ccccc1NC(=O)[C@@H]1C[C@H](C)CC[C@H]1C(C)C [IIa8-1]	16700 nM
Cc1ccc(NC(=O)[C@@H]2C[C@H](C)CC[C@H]2C(C)C)cc1 [IIa4-7]	1210 nM
CC(C)[C@@H]1CC[C@@H](C)C[C@H]1C(=O)Nc1ccc(Cl)cc1 [IIa4-5]	1990 nM
CC(C)[C@@H]1CC[C@@H](C)C[C@H]1C(=O)Nc1ccc(F)cc1 [IIa4-6]	3580 nM
COc1ccc(NC(=O)C2CC(C)CCC2C(C)C)cc1 (centres unmarked) [IIa4-1]	420 nM
